This listing pairs compounds with measured EC50.
- Study System: TNFα binding to TNF receptor (ECD-TNFR) (Homo sapiens)
- Measurement Notes: Biacore in-solution competition/enhancement assay, TNFα/compound mix over immobilised ECD-TNFR
- Condition Summary: Biacore A100/4000, 0.5-1 nM TNFα, highest concentration 20 μM; read-out: EC50 (compound induced enhanced binding of TNFα to TNF receptor)
The response must be a number in nM with no trailing unit.

{"columns": ["Compound", "Study System", "EC50, nM"],
 "data": [
  ["Cc1ccc(C)c(Cn2c(C(O)c3ccncc3)nc3ccccc32)c1 (centres unmarked) [Compound (1)]", "TNFα binding to TNF receptor (ECD-TNFR) (Homo sapiens)", 298]
]}

Query: For the compound Cc1ccc(C)c(Cn2c(C(O)c3ccncc3)nc3ccc(-c4cnn(C)c4)cc32)c1 (centres unmarked) [Compound (2)] , what EC50 is on record?
Result: 280
